Test system: Escherichia coli
Assay: Antibacterial activity against Escherichia coli KCTC 1682 after 24 hrs
Assay type: functional
Details: KCTC 1682, 24 h
measured parameter: MIC (µM)
One number for each entry, in µM.

Solved cases below.
smiles str: CC[C@H](C)[C@H](NC(=O)[C@H](CCCNC(=N)N)NC(=O)[C@@H](N)CCCCN)C(=O)N[C@H](C(=O)N[C@@H](CCCCN)C(=O)N[C@@H](CC(C)C)C(=O)N[C@H](CC(C)C)C(=O)N[C@@H](CC(C)C)C(=O)N[C@@H](CCCCN)C(=O)N[C@@H](Cc1c[nH]c2ccccc12)C(=O)N[C@@H](CC(C)C)C(=O)N[C@@H](CCCNC(=N)N)C(N)=O)C(C)C
MIC, µM: 4

smiles str: CC[C@H](C)[C@H](NC(=O)[C@H](CCCNC(=N)N)NC(=O)[C@@H](N)CCCCN)C(=O)N[C@H](C(=O)N[C@@H](CCCCN)C(=O)N[C@H](CC(C)C)C(=O)N[C@H](C(=O)N[C@@H](CC(C)C)C(=O)N[C@@H](CCCCN)C(=O)N[C@@H](Cc1c[nH]c2ccccc12)C(=O)N[C@@H](CC(C)C)C(=O)N[C@@H](CCCNC(=N)N)C(N)=O)[C@@H](C)CC)C(C)C
MIC, µM: 4

smiles str: CC[C@H](C)[C@H](NC(=O)[C@H](CC(C)C)NC(=O)[C@@H](CCCCN)NC(=O)[C@@H](NC(=O)[C@@H](NC(=O)[C@H](CCCNC(=N)N)NC(=O)[C@@H](N)CCCCN)[C@@H](C)CC)C(C)C)C(=O)N[C@@H](CC(C)C)C(=O)N[C@@H](CCCCN)C(=O)N[C@@H](Cc1c[nH]c2ccccc12)C(=O)N[C@@H](CC(C)C)C(=O)N[C@@H](CCCNC(=N)N)C(N)=O
MIC, µM: 4

Enquiry: If you can, please state the reported MIC value of CC[C@H](C)[C@H](NC(=O)[C@H](CC(C)C)NC(=O)[C@H](CCCCN)NC(=O)[C@@H](NC(=O)[C@@H](NC(=O)[C@H](CCCNC(=N)N)NC(=O)[C@@H](N)CCCCN)[C@@H](C)CC)C(C)C)C(=O)N[C@@H](CC(C)C)C(=O)N[C@@H](CCCCN)C(=O)N[C@@H](Cc1c[nH]c2ccccc12)C(=O)N[C@@H](CC(C)C)C(=O)N[C@@H](CCCNC(=N)N)C(N)=O .
Return: 8

* * *

Assay: Binding affinity to EYPC/cholesterol small unilamellar vesicles assessed as intrinsic tryptophan acrylamide quenching constant by fluorescence assay (reference value: 5.95 to 7.56 /M)
measured parameter: KSV (M⁻¹)
Give bare numbers, in M⁻¹.

Enquiry: If you can, please state the reported KSV value of CC[C@H](C)[C@H](NC(=O)[C@H](CC(C)C)NC(=O)[C@H](CCCCN)NC(=O)[C@@H](NC(=O)[C@@H](NC(=O)[C@H](CCCNC(=N)N)NC(=O)[C@@H](N)CCCCN)[C@@H](C)CC)C(C)C)C(=O)N[C@@H](CC(C)C)C(=O)N[C@@H](CCCCN)C(=O)N[C@@H](Cc1c[nH]c2ccccc12)C(=O)N[C@@H](CC(C)C)C(=O)N[C@@H](CCCNC(=N)N)C(N)=O .
Return: 1.66

* * *

System: Staphylococcus aureus
Assay: Antibacterial activity against Staphylococcus aureus KCTC 1621 in presence of 20% human serum after 24 hrs
Assay type: functional
Conditions: KCTC 1621, 24 h
measured parameter: MIC (µM)
Answers are plain numbers, in µM.

Enquiry: If you can, please state the reported MIC value of CC[C@H](C)[C@H](NC(=O)[C@H](CCCNC(=N)N)NC(=O)[C@@H](N)CCCCN)C(=O)N[C@H](C(=O)N[C@@H](CCCCN)C(=O)N[C@@H](CC(C)C)C(=O)N[C@H](CC(C)C)C(=O)N[C@@H](CC(C)C)C(=O)N[C@@H](CCCCN)C(=O)N[C@@H](Cc1c[nH]c2ccccc12)C(=O)N[C@@H](CC(C)C)C(=O)N[C@@H](CCCNC(=N)N)C(N)=O)C(C)C .
Return: 16
